Numbers sourced from patent US20260317312A1.

system: hRIPK1 (aa 1-375) fusion protein (Homo sapiens, UniProt Q13546)
Construct: hRIPK1 (aa 1-375) fusion protein
protocol.text: Receptor-Interacting Protein Kinase 1 inhibition, ADP Glo assay (conversion of ATP to ADP due to autophosphorylation)
experimental.context: ATP 50 μM, 30 min preincubation, 240 min incubation, room temperature, DMSO 1%
observed.property: IC50 (nM)

{"molecule": "N#Cc1ccc(OC[C@H]2CC[C@H](C(=O)N3OCC[C@H]3c3cnccn3)CC2)nc1", "observed.property": "IC50", "display.unit": "nM", "numeric.readout": 57}
{"molecule": "N#Cc1cc(F)cc([C@@H]2CCON2C(=O)C2CCC(COc3cc(C(N)=O)ncn3)C2)c1 (single isomer, unassigned; stereoisomer 3) [Compound 117]", "observed.property": "IC50", "display.unit": "nM", "numeric.readout": 50}
{"molecule": "N#Cc1cc(F)cc([C@@H]2CCON2C(=O)[C@H]2C[C@@H](n3ccc4cc(F)ccc43)C2)c1", "observed.property": "IC50", "display.unit": "nM", "numeric.readout": 19}
{"molecule": "N#Cc1cc(F)cc([C@@H]2CCON2C(=O)[C@H]2CC[C@H](COc3cccc(S(N)(=O)=O)c3)CC2)c1", "observed.property": "IC50", "display.unit": "nM", "numeric.readout": 53}
{"molecule": "NS(=O)(=O)c1cccc(OC[C@H]2CC[C@H](C(=O)N3OCC[C@H]3c3cc(F)cc(F)c3)CC2)c1", "observed.property": "IC50", "display.unit": "nM", "numeric.readout": 35}
{"molecule": "N#Cc1cc(F)cc([C@@H]2CCON2C(=O)[C@H]2CC[C@H](CNc3ccc(F)c(C#N)c3)CC2)c1", "observed.property": "IC50", "display.unit": "nM", "numeric.readout": 18}

I. N#Cc1cc(F)cc([C@@H]2CCON2C(=O)[C@H]2C[C@@H](n3cc4cc(F)ccc4n3)C2)c1
II. N#Cc1cc(N[C@H]2C[C@@H](C(=O)N3OCC[C@H]3c3cncc(F)c3)C2)ccc1F
III. NC(=O)c1cc(N[C@H]2CC[C@@H](C(=O)N3OCC[C@H]3c3ccc(Cl)cc3)CC2)ncn1
IV. N#Cc1cc(OC[C@H]2CC[C@H](C(=O)N3OCC[C@H]3c3cc(F)cc(F)c3)CC2)ccc1F
V. NC(=O)c1cc(OCC2CCC(C(=O)N3OCC[C@H]3c3cc(F)cc(F)c3)C2)ncn1 (single isomer, unassigned; stereoisomer 3) [Compound 120]
Query string: Sort entries by IC50 from minimum to maximum value. List labels; respect the requested ordering.
Result string: IV, II, V, I, III
(IV: 11 nM, II: 22 nM, V: 32 nM, I: 55 nM, III: 114 nM)

I. NC(=O)c1cc(F)cc(OC[C@H]2CC[C@H](C(=O)N3OCC[C@H]3c3cnccn3)CC2)c1
II. Cc1ccc(OC[C@H]2CC[C@H](C(=O)N3OCC[C@H]3c3cc(F)cc(C#N)c3)CC2)cc1C(N)=O
III. N#Cc1cc(F)cc([C@@H]2CCON2C(=O)C2CCCC(COc3cc(C(N)=O)ncn3)CC2)c1 (single isomer, unassigned; stereoisomer 2) [Compound 127]
Query string: Hi! Can you put these in order of IC50, lowest number first? Use the labels to give the ranking in the order requested.
Result string: III, II, I
(III: 17 nM, II: 28 nM, I: 41 nM)

* * *

system: hRIPK1 (aa 1-375) fusion protein (Homo sapiens, UniProt Q13546)
Construct: hRIPK1 (aa 1-375) fusion protein
Sequence (Q13546 1-375): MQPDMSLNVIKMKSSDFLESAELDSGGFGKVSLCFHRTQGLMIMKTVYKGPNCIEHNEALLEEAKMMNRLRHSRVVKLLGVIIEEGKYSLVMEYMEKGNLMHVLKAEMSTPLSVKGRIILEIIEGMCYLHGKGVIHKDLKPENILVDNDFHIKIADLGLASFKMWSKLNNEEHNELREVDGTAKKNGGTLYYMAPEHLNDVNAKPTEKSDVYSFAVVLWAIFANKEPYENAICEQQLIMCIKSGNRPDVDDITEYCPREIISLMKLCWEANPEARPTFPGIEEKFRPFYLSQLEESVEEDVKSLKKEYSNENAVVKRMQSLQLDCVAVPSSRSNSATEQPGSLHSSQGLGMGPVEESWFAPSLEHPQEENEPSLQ
protocol.text: Receptor-Interacting Protein Kinase 1 inhibition, ADP Glo assay (conversion of ATP to ADP due to autophosphorylation)
experimental.context: ATP 50 μM, 30 min preincubation, 240 min incubation, room temperature, DMSO 1%
pIC50: −log10 of the molar value.
observed.property: pIC50

The examples below pair each entry with its known result.
{"compound": "O=C([C@H]1C[C@@H](n2cc3cc(F)ccc3n2)C1)N1OCC[C@H]1c1cc(F)cc(F)c1", "pIC50": 7.21}
{"compound": "N#Cc1cc(F)cc([C@@H]2CCON2C(=O)[C@H]2CC[C@@H](Oc3ccc(F)c(C#N)c3)CC2)c1", "pIC50": 7.36}
{"compound": "COc1cncc([C@@H]2CCON2C(=O)[C@H]2CC[C@H](COc3cccc(C(N)=O)c3)CC2)n1", "pIC50": 7.96}
{"compound": "O=C([C@H]1C[C@H](n2ncc3cc(F)ccc32)C1)N1OCC[C@H]1c1cc(F)cc(F)c1", "pIC50": 7.42}
{"compound": "N#Cc1cncc([C@@H]2CCON2C(=O)[C@H]2CC[C@H](COc3ccc(F)c(C#N)c3)CC2)c1", "pIC50": 7.82}
{"compound": "N#Cc1cc(F)cc([C@@H]2CCON2C(=O)[C@H]2CC[C@H](CNc3cc(C(N)=O)ncn3)CC2)c1", "pIC50": 7.07}

P. N#Cc1cc(N[C@H]2C[C@@H](C(=O)N3OCC[C@H]3c3ccc(Cl)cc3)C2)ncn1
Q. O=C1CCCN1c1ccc(Cl)c(OC[C@H]2CC[C@H](C(=O)N3OCC[C@H]3c3cc(F)cc(F)c3)CC2)c1
R. N#Cc1cc(F)cc(OC[C@H]2CC[C@H](C(=O)N3OCC[C@H]3c3cnccn3)CC2)c1
S. N#Cc1cccc(OC[C@H]2CC[C@H](C(=O)N3OCC[C@H]3c3cncc(C#N)c3)CC2)c1
Query string: Order the entries by their reported pIC50, beginning at the minimum. Please respond with the labels ordered as the question requires.
Result string: Q, P, R, S

I. N#Cc1cc(NC[C@H]2CC[C@H](C(=O)N3OCC[C@H]3c3cncc(F)c3)CC2)ccc1F
II. O=C([C@H]1CC[C@H](COc2cc(Cl)ncn2)CC1)N1OCC[C@H]1c1cc(F)cc(F)c1
III. CC1(C)OC(=O)N(c2ccc(F)c(O[C@H]3CC[C@@H](C(=O)N4OCC[C@H]4c4cc(F)cc(C#N)c4)CC3)c2)C1=O
Query string: Rank items: key pIC50, increasing. # output: labels, in the requested order
Result string: III, II, I

A. N#Cc1cc(O[C@H]2C[C@H](C(=O)N3OCC[C@H]3c3cc(F)cc(F)c3)C2)ccc1F
B. C[C@]1(C(=O)N2OCC[C@H]2c2cc(F)cc(F)c2)C[C@@H](Nc2c(Cl)ncnc2C(N)=O)C1
C. Cn1ccc2c(NC[C@H]3CC[C@H](C(=O)N4OCC[C@H]4c4cc(F)cc(C#N)c4)CC3)ncnc21
D. N#Cc1cc(F)cc([C@@H]2CCON2C(=O)[C@H]2C[C@@H](n3cnc4cc(F)ccc43)C2)c1
Query string: Hi! Can you put these in order of pIC50, lowest number first? In plain terms: list the labels in the order you were asked to.
Result string: C, B, D, A
(C: 6.96, B: 7.21, D: 7.41, A: 7.68)

I. N#Cc1ccc(OC[C@H]2CC[C@H](C(=O)N3OCC[C@H]3c3cncc(C#N)c3)CC2)nc1
II. N#Cc1cc(N[C@H]2C[C@@H](C(=O)N3OCC[C@H]3c3ccc(F)c(F)c3)C2)ncn1
Query string: Between I and II , which one has the lower reported pIC50 value? Response format: the label of the selected entry.
Result string: II
(II: 7.40, I: 7.82)

* * *

system: hRIPK1 (aa 1-375) fusion protein (Homo sapiens)
Construct: hRIPK1 (aa 1-375) fusion protein
Sequence (Q13546 1-375): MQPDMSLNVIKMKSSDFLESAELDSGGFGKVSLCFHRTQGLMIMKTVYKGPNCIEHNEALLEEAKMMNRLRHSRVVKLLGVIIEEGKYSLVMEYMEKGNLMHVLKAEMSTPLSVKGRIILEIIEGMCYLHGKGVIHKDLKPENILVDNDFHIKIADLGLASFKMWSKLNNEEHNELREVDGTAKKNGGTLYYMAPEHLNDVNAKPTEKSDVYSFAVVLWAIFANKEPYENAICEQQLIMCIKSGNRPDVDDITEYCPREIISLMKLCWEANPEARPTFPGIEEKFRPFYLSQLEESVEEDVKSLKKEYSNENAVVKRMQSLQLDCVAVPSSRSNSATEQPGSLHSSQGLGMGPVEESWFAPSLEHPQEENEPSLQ
protocol.text: Receptor-Interacting Protein Kinase 1 inhibition, ADP Glo assay (conversion of ATP to ADP due to autophosphorylation)
experimental.context: ATP 50 μM, 30 min preincubation, 240 min incubation, room temperature, DMSO 1%
pIC50: −log10 of the molar value.
observed.property: pIC50

{"compound": "N#Cc1cc(F)cc(O[C@H]2C[C@H](C(=O)N3OCC[C@H]3c3cc(F)cc(F)c3)C2)c1 [Compound 50]", "pIC50": 7.60}
{"compound": "N#Cc1cc(F)cc([C@@H]2CCON2C(=O)[C@H]2C[C@@H](Nc3cc(C#N)ncn3)C2)c1 [Compound 20]", "pIC50": 7.16}

A. NC(=O)c1ccnc(C2CCC(C(=O)N3OCC[C@H]3c3cc(F)cc(F)c3)C2)c1 (single isomer, unassigned) [Compound 114]
B. NC(=O)c1ccc(OC[C@H]2CC[C@H](C(=O)N3OCC[C@H]3c3cnccn3)CC2)c(F)c1 [Compound 113]
C. O=C([C@H]1C[C@H](n2ccc3cc(F)ccc32)C1)N1OCC[C@H]1c1cc(F)cc(F)c1 [Compound 106]
D. Cc1ccc(OC[C@H]2CC[C@H](C(=O)N3OCC[C@H]3c3cc(F)cc(F)c3)CC2)cc1C(N)=O [Compound 86]
Query string: Please order the records by their reported pIC50, lowest number first. To answer, write out the labels according to the requested order.
Result string: A, C, B, D
(A: 6.88, C: 7.11, B: 7.42, D: 7.66)

A. O=C([C@H]1CC[C@@H](COc2cc(Cl)ncn2)CC1)N1OCC[C@H]1c1cc(F)cc(F)c1 [Compound 56]
B. N#Cc1cc(F)cc(N[C@H]2CC[C@@H](C(=O)N3OCC[C@H]3c3cc(F)cc(C#N)c3)CC2)c1 [Compound 39]
C. N#Cc1cc(F)cc([C@@H]2CCON2C(=O)C2CCCC(COc3cc(C(N)=O)ncn3)CC2)c1 (single isomer, unassigned; stereoisomer 1) [Compound 126]
Query string: Exam item: list the entries in increasing order of pIC50. Returns: the labels listed in the requested order.
Result string: B, A, C
(B: 6.95, A: 7.33, C: 7.60)

A. N#Cc1cc(F)cc([C@@H]2CCON2C(=O)[C@H]2C[C@H](n3ccc4cc(F)ccc43)C2)c1 [Compound 105]
B. N#Cc1cc(F)cc([C@@H]2CCON2C(=O)[C@H]2CC[C@@H](Nc3cc(C#N)ncn3)CC2)c1 [Compound 28]
C. C[C@]1(C(=O)N2OCC[C@H]2c2cc(F)cc(F)c2)C[C@@H](Nc2ncnc(C(N)=O)c2F)C1 [Compound 11]
Query string: Please produce an ascending ranking of these compounds based on pIC50. Quick reminder: the answer is the labels in the order asked.
Result string: B, C, A
(B: 6.79, C: 7.21, A: 7.44)
